TARGET: T1, recombinant human Nectin-4-His protein (human, UniProt Q96NY8 32-349)
T1 construct: Rescreening antigen and bought ELISA antigen are treated as one molecule; also called human Nectin-4-His tagged; Ag1; not shown: His tag
T1 sequence: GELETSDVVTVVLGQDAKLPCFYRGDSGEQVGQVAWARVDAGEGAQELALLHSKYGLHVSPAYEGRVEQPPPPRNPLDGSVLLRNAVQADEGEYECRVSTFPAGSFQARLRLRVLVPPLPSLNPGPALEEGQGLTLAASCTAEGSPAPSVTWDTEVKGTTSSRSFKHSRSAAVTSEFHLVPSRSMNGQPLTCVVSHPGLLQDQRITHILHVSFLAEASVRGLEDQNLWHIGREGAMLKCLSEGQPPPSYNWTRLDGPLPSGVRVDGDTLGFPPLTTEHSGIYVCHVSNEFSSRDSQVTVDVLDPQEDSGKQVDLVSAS
ASSAY_METHOD_TEXT: ELISA, coated antigen
METRIC: pEC50
Numbers only, as −log10 of the molar value.

# BINDER, pEC50
measured = [
    ("Nectin-4 5D9 VH4/VL4 (antibody, V domains shown, Humanized; also called 5D9 VH variant 4 / 5D9 VL variant 4) VH: QVQLQQSGPGLVKPSETLSLTCTVSGFSLTNYGVHWVRQPPGKGLEWLGVIWSGGSTDYNPSLKSRLTISRDTSKNQVSFKMSSVTAADTAVYYCARSGKWYYFDYWGQGTLVTVSS VL: DIQMTQSPSSLSASVGDRVTITCRASENIYSNLAWYQQKPGKAPKLLVYAATNLADGVPSRFSGSGSGTDYTLTISSLQPEDFATYYCQHFWGTPTFGGGTKVEIK", 9.63),
]

Turning to the following binder.
Task: What does the record list as pEC50 for Nectin-4 5D9 VH1/VL5 (antibody, V domains shown, Humanized; also called 5D9 VH variant 1 / 5D9 VL variant 5) VH: QVQLKESGPGLVQPSETLSLTCTVSGFSITNYGVHWIRQSPGKGLEWLGVIWSGGSTDYNAAFVSRVTISRDNSKSQVFFKLNSVQADDTAVYYCARSGKWYYFDYWGQGTTVTVSS VL: DIQMTQSPSSLSASVGDRVTITCRASQSIYSNLAWYQQKPGKAPKLLVYAATNLQSGVPSRFSGSGSGTDFTLTISSLQPEDFATYYCQHFWGTPTFGGGTKVEIK ?
Output: 9.46
